Value source: ChEMBL document CHEMBL4428125

# test.target: Adenosine receptor A2b (Homo sapiens)
# Sequence (P29275 whole entry): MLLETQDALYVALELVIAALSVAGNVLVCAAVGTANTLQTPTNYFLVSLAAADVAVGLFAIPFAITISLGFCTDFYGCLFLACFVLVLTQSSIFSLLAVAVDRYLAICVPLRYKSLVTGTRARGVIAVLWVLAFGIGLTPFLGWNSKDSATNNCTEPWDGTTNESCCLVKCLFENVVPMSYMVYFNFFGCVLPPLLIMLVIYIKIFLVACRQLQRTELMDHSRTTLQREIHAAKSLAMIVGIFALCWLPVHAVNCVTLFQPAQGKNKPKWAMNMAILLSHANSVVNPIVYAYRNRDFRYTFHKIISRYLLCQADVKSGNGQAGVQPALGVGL
# procedure.summary: Displacement of [3H]PSB-603 from human A2B receptor expressed in CHO cell membrane
# Format: cell membranes
endpoint: Ki

Problem: Which Ki is listed for Cn1c(=O)c2c(nc3n2CCN([C@@H]2CCCc4ccccc42)C3)n(C)c1=O ?
Result: > 300 nM

Problem: Which Ki is listed for Cn1c(=O)c2c(nc3n2CCN(CCc2ccccc2Cl)C3)n(C)c1=O ?
Result: > 1000 nM

Problem: Which Ki is listed for Cn1c(=O)c2c(nc3n2CCN(c2cccc(F)c2)C3)n(C)c1=O ?
Result: > 1000 nM

Problem: Which Ki is listed for Cn1c(=O)c2c(nc3n2CCN(CCc2cc(C(F)(F)F)ccc2F)C3)n(C)c1=O ?
Result: > 300 nM

Problem: Which Ki is listed for Cn1c(=O)c2c(nc3n2CCN(CCc2ccccc2)C3)n(C)c1=O ?
Result: > 1000 nM

###

Consider the following compounds; for each one, report its solubility thermodynamic.
# procedure.summary: Thermodynamic solubility of the compound at pH 7.4
# Type: physicochemical
# measurement.setup: buffer, read-out: Therm_solubility

Problem: Which solubility thermodynamic is listed for Cn1c(=O)c2c(nc3n2CCN(CCc2cc(C(F)(F)F)ccc2F)C3)n(C)c1=O ?
Result: < 0.5 µg/mL

Problem: Which solubility thermodynamic is listed for Cn1c(=O)c2c(nc3n2CCN(Cc2csc(-c4ccc(C(F)(F)F)cc4)n2)C3)n(C)c1=O ?
Result: < 0.5 µg/mL

Problem: Which solubility thermodynamic is listed for Cn1c(=O)c2c(nc3n2CCN(C2CCN(Cc4ccccc4)CC2)C3)n(C)c1=O ?
Result: 300 µg/mL

Problem: Which solubility thermodynamic is listed for Cn1c(=O)c2c(nc3n2CCN(C2CCc4ccccc42)C3)n(C)c1=O (racemic) ?
Result: < 0.5 µg/mL

Problem: Which solubility thermodynamic is listed for Cn1c(=O)c2c(nc3n2CCN(CCc2cccc(Br)c2)C3)n(C)c1=O ?
Result: < 0.5 µg/mL

###

Consider the following molecules; for each one, report its IC50.
# test.target: UniProt:P27338
# Sequence (P27338 whole entry): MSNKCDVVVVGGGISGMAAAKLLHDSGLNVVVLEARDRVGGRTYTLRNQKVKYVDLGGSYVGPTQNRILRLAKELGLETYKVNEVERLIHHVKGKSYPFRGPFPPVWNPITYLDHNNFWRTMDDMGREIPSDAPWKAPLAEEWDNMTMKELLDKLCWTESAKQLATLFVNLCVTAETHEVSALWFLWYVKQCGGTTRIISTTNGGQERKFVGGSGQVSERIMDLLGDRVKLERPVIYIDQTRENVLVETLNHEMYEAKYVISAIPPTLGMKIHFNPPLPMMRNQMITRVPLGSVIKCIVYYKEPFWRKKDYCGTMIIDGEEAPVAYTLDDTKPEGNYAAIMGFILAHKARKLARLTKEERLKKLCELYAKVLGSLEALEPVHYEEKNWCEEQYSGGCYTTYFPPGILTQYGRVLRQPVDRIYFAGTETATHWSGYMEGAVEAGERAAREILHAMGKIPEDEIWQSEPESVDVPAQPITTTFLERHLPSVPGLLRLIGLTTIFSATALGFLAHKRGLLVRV
# procedure.summary: Inhibition of recombinant human MAO-B expressed in baculovirus infected BTI insect cells preincubated for 30 mins followed by addition of p-tyramine as substrate measured over 45 mins by Amplex Red MAO assay

Problem: Which IC50 is listed for Cn1c(=O)c2c(nc3n2CCN(CCc2ccc(Cl)c(Cl)c2)C3)n(C)c1=O ?
Result: 0.802 µM

Problem: Which IC50 is listed for C#CCN1CCn2c(nc3c2c(=O)n(C)c(=O)n3C)C1 ?
Result: > 10 µM

Problem: Which IC50 is listed for Cn1c(=O)c2c(nc3n2CCN([C@@H]2CCc4ccccc42)C3)n(C)c1=O ?
Result: 2.15 µM

Problem: Which IC50 is listed for Cn1c(=O)c2c(nc3n2CCN(CCc2ccc(Cl)cc2)C3)n(C)c1=O ?
Result: > 10 µM

Problem: Which IC50 is listed for Cn1c(=O)c2c(nc3n2CCN(C2CCN(Cc4ccccc4)CC2)C3)n(C)c1=O ?
Result: > 10 µM

Problem: Which IC50 is listed for COc1cccc(N2CCn3c(nc4c3c(=O)n(C)c(=O)n4C)C2)c1 ?
Result: 1.16 µM

Problem: Which IC50 is listed for Cn1c(=O)c2c(nc3n2CCN(c2ccc(Cl)cc2)C3)n(C)c1=O ?
Result: > 10 µM

Problem: Which IC50 is listed for CC(CN1CCn2c(nc3c2c(=O)n(C)c(=O)n3C)C1)c1ccccc1 (stereo unspecified) ?
Result: > 10 µM

Problem: Which IC50 is listed for COc1ccccc1CCN1CCn2c(nc3c2c(=O)n(C)c(=O)n3C)C1 ?
Result: > 10 µM

Problem: Which IC50 is listed for COc1ccc(CCN2CCn3c(nc4c3c(=O)n(C)c(=O)n4C)C2)cc1OC ?
Result: > 10 µM

Problem: Which IC50 is listed for COc1ccc(Br)cc1CCN1CCn2c(nc3c2c(=O)n(C)c(=O)n3C)C1 ?
Result: > 10 µM

Problem: Which IC50 is listed for Cn1c(=O)c2c(nc3n2CCN(Cc2csc(-c4cccs4)n2)C3)n(C)c1=O ?
Result: > 10 µM

Problem: Which IC50 is listed for Cn1c(=O)c2c(nc3n2CCN(CCCn2ccnc2)C3)n(C)c1=O ?
Result: > 10 µM

Problem: Which IC50 is listed for Cn1c(=O)c2c(nc3n2CCN(CCc2cccc(F)c2)C3)n(C)c1=O ?
Result: > 10 µM

Problem: Which IC50 is listed for Cn1c(=O)c2c(nc3n2CCN(CCc2ccc(Cl)cc2C(F)(F)F)C3)n(C)c1=O ?
Result: 0.425 µM

Problem: Which IC50 is listed for Cn1c(=O)c2c(nc3n2CCN(Cc2csc(-c4ccc(C(F)(F)F)cc4)n2)C3)n(C)c1=O ?
Result: 10 µM

Problem: Which IC50 is listed for Cn1c(=O)c2c(nc3n2CCN(CCc2ccc(Cl)cc2Cl)C3)n(C)c1=O ?
Result: 2.45 µM

Problem: Which IC50 is listed for COc1cccc(CCN2CCn3c(nc4c3c(=O)n(C)c(=O)n4C)C2)c1OC ?
Result: > 10 µM

Problem: Which IC50 is listed for Cn1c(=O)c2c(nc3n2CCN(Cc2cn(-c4ccc(Cl)cc4)nn2)C3)n(C)c1=O ?
Result: > 10 µM

Problem: Which IC50 is listed for Cn1c(=O)c2c(nc3n2CCN(CCc2ccccc2Cl)C3)n(C)c1=O ?
Result: 0.723 µM

Problem: Which IC50 is listed for Cn1c(=O)c2c(nc3n2CCN(CC#Cc2ccc(Cl)c(Cl)c2)C3)n(C)c1=O ?
Result: > 10 µM
